src = ChEMBL document CHEMBL1201862

Test system: SK-MEL-5
Assay: NCI tumour cell line growth inhibition, 48 h
Activity calls are given as the source filed them. Rule as the data show it: active = GI50 up to about 1.1 µM and inactive = higher.
Possible outcomes: YES = active, NO = inactive

{"COMPOUND": "NC(=O)c1ccc([N+](=O)[O-])cc1", "ASSIGNED_LABEL": "NO"}
{"COMPOUND": "CC(C)(CN1CCCCC1)C(/C=C/c1ccccc1)=N\\NC(=O)N/N=C(/C=C/c1ccccc1)C(C)(C)CN1CCCCC1", "ASSIGNED_LABEL": "NO"}
{"COMPOUND": "COC(=O)/C=c1/c2ccccc2n2c1c1ccccc1[n+]2C", "ASSIGNED_LABEL": "NO"}
{"COMPOUND": "O=[N+]([O-])c1ccc(NN/N=N/c2ccc(-c3nc4ccccc4[nH]3)cc2)c([N+](=O)[O-])c1", "ASSIGNED_LABEL": "NO"}
{"COMPOUND": "CCOC(=S)SCC(=O)O", "ASSIGNED_LABEL": "NO"}
{"COMPOUND": "COc1cc(/N=N\\c2ccc(OC)c(S(=O)(=O)O)c2)c(C)cc1/N=N\\c1ccc(/C=C/c2ccc(/N=[N+](/[O-])c3ccc(/C=C/c4ccc(/N=N/c5cc(C)c(/N=N\\c6ccc(OC)c(S(=O)(=O)O)c6)cc5OC)cc4S(=O)(=O)O)c(S(=O)(=O)O)c3)cc2S(=O)(=O)O)c(S(=O)(=O)O)c1", "ASSIGNED_LABEL": "NO"}
{"COMPOUND": "CCOC(=O)/C=C/C(Br)=C(Br)/C=C/C(=O)OCC", "ASSIGNED_LABEL": "NO"}
{"COMPOUND": "O=C1O/C(=C(\\Br)c2ccc([N+](=O)[O-])cc2)c2ccccc21", "ASSIGNED_LABEL": "NO"}
{"COMPOUND": "COc1ccc(C)cc1Nc1nnc(-c2ccc(N)cc2)s1", "ASSIGNED_LABEL": "NO"}
{"COMPOUND": "O=C(/C=C/c1ccccc1F)c1ccc(Cl)c(Cl)c1", "ASSIGNED_LABEL": "NO"}
{"COMPOUND": "CC(=O)NNc1nc(C)c(C(=O)/C=C/c2ccccc2Cl)s1", "ASSIGNED_LABEL": "NO"}
{"COMPOUND": "CC(C)=CCC(OC(=O)C=C(C)C)c1cc(O)c2c(c1O)C(=O)C=CC2=O (centres undefined)", "ASSIGNED_LABEL": "YES"}
{"COMPOUND": "CC(=O)C1=C(c2ccccc2)N(C2OC(CO)C(O)C(O)C2O)C(S)=C(C#N)C1c1ccc(Cl)cc1 (centres undefined)", "ASSIGNED_LABEL": "NO"}
{"COMPOUND": "COc1cc2c3c(c4cc(OC)c(OC)cc4c2cc1OC)[C@H](O)[C@@H]1CCCN1C3", "ASSIGNED_LABEL": "YES"}
{"COMPOUND": "Cn1c(=O)c(C2c3ccccc3Oc3c2c(=O)n(C)c2ccccc32)c(O)c2ccccc21 (centres undefined)", "ASSIGNED_LABEL": "NO"}
{"COMPOUND": "NC(=O)N/N=C\\CC(O)(C(F)(F)Cl)C(F)(F)Cl", "ASSIGNED_LABEL": "NO"}
{"COMPOUND": "COc1ccc(-c2c3ccccc3c(-c3ccc(OCCBr)cc3)c3ccccc23)cc1", "ASSIGNED_LABEL": "NO"}
{"COMPOUND": "CN(C)C(=C1c2cc([N+](=O)[O-])ccc2-c2ccc([N+](=O)[O-])cc21)N(C)C", "ASSIGNED_LABEL": "NO"}
{"COMPOUND": "Brc1ccccc1-c1ncc(-c2ccccc2)o1", "ASSIGNED_LABEL": "NO"}

====

System: NCI/ADR-RES
Assay: NCI tumour cell line growth inhibition, 48 h
Calls of active or inactive are those of the source. Cut-off read from the data, not from the text of the source: active = GI50 up to about 1.1 µM and inactive = higher.
Entries annotated with measured GI50
ASSAY_READOUT: GI50

{"COMPOUND": "CCC[C@@H]1C(=O)N=C(N)N1C(=O)OCc1ccccc1", "ASSAY_READOUT": "GI50", "MEASURED_VALUE": "> 100 µM (inactive)"}
{"COMPOUND": "CCOC(=O)C1=c2[nH]c3cccc4cccc(c43)n2C(=O)CC1c1ccccc1 (stereo not given)", "ASSAY_READOUT": "GI50", "MEASURED_VALUE": "> 100 µM (inactive)"}
{"COMPOUND": "CCOC(=O)Cc1ccc(Nc2nc3cc(F)c(F)cc3nc2C(=O)OCC)cc1", "ASSAY_READOUT": "GI50", "MEASURED_VALUE": "43.9 µM (inactive)"}
{"COMPOUND": "O=C(N(C1=CCCC1)N(c1ccccc1)c1ccccc1)C(F)(F)F", "ASSAY_READOUT": "GI50", "MEASURED_VALUE": "28.8 µM (inactive)"}
{"COMPOUND": "COC(=O)[C@H]1C=C[C@H](OC2OC(COC(C)=O)C(OC(C)=O)C(OC(C)=O)C2OC(C)=O)n2c(=O)n(-c3ccccc3)c(=O)n21 (stereo not given in full)", "ASSAY_READOUT": "GI50", "MEASURED_VALUE": "6.07 µM (inactive)"}
{"COMPOUND": "O=C1CC(=O)NC(NN2C(=O)CSC2c2ccc(Cl)cc2)=N1 (stereo not given)", "ASSAY_READOUT": "GI50", "MEASURED_VALUE": "> 100 µM (inactive)"}
{"COMPOUND": "O=c1c2ccccc2nc2[nH][nH]c(=S)n12", "ASSAY_READOUT": "GI50", "MEASURED_VALUE": "> 100 µM (inactive)"}
{"COMPOUND": "CC(NC1=NCCO1)c1ccsc1 (stereo not given)", "ASSAY_READOUT": "GI50", "MEASURED_VALUE": "> 100 µM (inactive)"}
{"COMPOUND": "O=c1c(-c2ccccc2)c(SCCN2CCCCCC2)n(-c2ccccc2)c(=S)n1-c1ccccc1", "ASSAY_READOUT": "GI50", "MEASURED_VALUE": "68.2 µM (inactive)"}
{"COMPOUND": "COC(=O)c1cccc(OC)c1C#Cc1c(OC)cccc1OC", "ASSAY_READOUT": "GI50", "MEASURED_VALUE": "> 100 µM (inactive)"}
{"COMPOUND": "O=C1O/C(=C(\\Br)c2ccc([N+](=O)[O-])cc2)c2ccccc21", "ASSAY_READOUT": "GI50", "MEASURED_VALUE": "> 100 µM (inactive)"}
{"COMPOUND": "COC(=O)C1Cc2c(OC)ccc(OC)c2CC(C(=O)OC)C1=O (stereo not given)", "ASSAY_READOUT": "GI50", "MEASURED_VALUE": "> 100 µM (inactive)"}
{"COMPOUND": "Cc1c(C#N)c2nc3ccccc3n2c(=O)/c1=C/Nc1ccc(Cl)cc1", "ASSAY_READOUT": "GI50", "MEASURED_VALUE": "95.7 µM (inactive)"}
{"COMPOUND": "CC(=O)C1=C(c2ccccc2)N(C2OC(CO)C(O)C(O)C2O)C(S)=C(C#N)C1c1ccc(Cl)cc1 (stereo not given)", "ASSAY_READOUT": "GI50", "MEASURED_VALUE": "31.4 µM (inactive)"}
{"COMPOUND": "Cc1cc2nc(-c3cc(C(C)(C)C)c(O)c(C(C)(C)C)c3)[nH]c2cc1C", "ASSAY_READOUT": "GI50", "MEASURED_VALUE": "> 68.7 µM (inactive)"}
{"COMPOUND": "CC1(C)CC(=O)c2c(nc(SSc3nc4c(c(-c5ccccc5)c3C#N)C(=O)CC(C)(C)C4)c(C#N)c2-c2ccccc2)C1", "ASSAY_READOUT": "GI50", "MEASURED_VALUE": "> 10 µM (inactive)"}
{"COMPOUND": "COc1cccc(Nc2nc(N)nc(N)c2N)c1", "ASSAY_READOUT": "GI50", "MEASURED_VALUE": "> 100 µM (inactive)"}
{"COMPOUND": "CC1(C)C(c2ccccc2)=[N+]([O-])C(C)(C)N1O", "ASSAY_READOUT": "GI50", "MEASURED_VALUE": "> 10 µM (inactive)"}
{"COMPOUND": "CC(C)OC(=O)c1ccc(NCC2=CC(=O)C=CC2=O)cc1", "ASSAY_READOUT": "GI50", "MEASURED_VALUE": "13.5 µM (inactive)"}
{"COMPOUND": "COc1ccc2cc(NC(=O)N/N=C\\c3ccc(Cl)cc3)ccc2c1", "ASSAY_READOUT": "GI50", "MEASURED_VALUE": "86.3 µM (inactive)"}
{"COMPOUND": "O=C1/C(=C\\c2ccccc2)C(NC2CCCCC2)c2ccccc21 (stereo not given)", "ASSAY_READOUT": "GI50", "MEASURED_VALUE": "3.65 µM (inactive)"}
{"COMPOUND": "CC(C)C(C(=O)O)N1C(=O)c2ccccc2C1=O (stereo not given)", "ASSAY_READOUT": "GI50", "MEASURED_VALUE": "> 100 µM (inactive)"}
{"COMPOUND": "CN1CCN(CN2C(=O)C3C4C=CC(C3C2=O)C2C(=O)N(CN3CCN(C)CC3)C(=O)C42)CC1 (stereo not given)", "ASSAY_READOUT": "GI50", "MEASURED_VALUE": "> 60.4 µM (inactive)"}
{"COMPOUND": "Cc1sc2nc3n(c(=O)c2c1C)N=CN(c1ccc(Cl)cc1)C3", "ASSAY_READOUT": "GI50", "MEASURED_VALUE": "> 100 µM (inactive)"}
{"COMPOUND": "Clc1nc2c(N3CCCC3)nc(N3CCNCC3)nc2[nH]1", "ASSAY_READOUT": "GI50", "MEASURED_VALUE": "37.2 µM (inactive)"}
{"COMPOUND": "O=c1c(=O)c2cscc2c1=O", "ASSAY_READOUT": "GI50", "MEASURED_VALUE": "8 µM (inactive)"}
{"COMPOUND": "COc1ccc(-c2nc(-c3cnccn3)n(C/C=C/c3ccccc3)n2)cc1", "ASSAY_READOUT": "GI50", "MEASURED_VALUE": "83.4 µM (inactive)"}
{"COMPOUND": "CC(=O)c1c(C)n(C)c2c1nnc1ccccc12", "ASSAY_READOUT": "GI50", "MEASURED_VALUE": "46.5 µM (inactive)"}
{"COMPOUND": "Cc1nc(N)sc1/N=N/c1cc(Cl)c([N+](=O)[O-])cc1Cl", "ASSAY_READOUT": "GI50", "MEASURED_VALUE": "20.6 µM (inactive)"}
{"COMPOUND": "CC1C2CC(CC23OCC(CCl)O3)C1(C)C (stereo not given)", "ASSAY_READOUT": "GI50", "MEASURED_VALUE": "> 100 µM (inactive)"}
{"COMPOUND": "CC1=CC2=C(C(N)=O)C(=O)OC2(C)C(c2ccccc2)C1 (stereo not given)", "ASSAY_READOUT": "GI50", "MEASURED_VALUE": "> 100 µM (inactive)"}
{"COMPOUND": "CCCC(=O)N(C(=O)CCC)C1=C(Cl)C(=O)c2ccccc2C1=O", "ASSAY_READOUT": "GI50", "MEASURED_VALUE": "3.86 µM (inactive)"}
{"COMPOUND": "CSc1ccc(C(=O)C(=O)c2ccc(SC)s2)s1", "ASSAY_READOUT": "GI50", "MEASURED_VALUE": "8.45 µM (inactive)"}
{"COMPOUND": "C=CCC(C(=O)O)c1ccccc1 (stereo not given)", "ASSAY_READOUT": "GI50", "MEASURED_VALUE": "> 100 µM (inactive)"}
{"COMPOUND": "Oc1c(C(O)(c2ccccc2)c2ccc3ccccc3c2O)ccc2ccccc12", "ASSAY_READOUT": "GI50", "MEASURED_VALUE": "13.2 µM (inactive)"}
{"COMPOUND": "Cc1nc2nc3c(ncn3COCCO)c(O)n2c1C(c1ccccc1)(c1ccccc1)c1ccccc1", "ASSAY_READOUT": "GI50", "MEASURED_VALUE": "1.55 µM (inactive)"}
{"COMPOUND": "Cc1ccc(C(=O)Nc2ccc(S(=O)(=O)O)c3cc(S(=O)(=O)O)cc(S(=O)(=O)O)c23)cc1N", "ASSAY_READOUT": "GI50", "MEASURED_VALUE": "> 100 µM (inactive)"}
{"COMPOUND": "COc1ccc(/[N+]([O-])=C/c2ccccc2OC(=S)S)cc1", "ASSAY_READOUT": "GI50", "MEASURED_VALUE": "28.1 µM (inactive)"}
{"COMPOUND": "COc1ccc2c(c1)CC1=C(O2)c2ccc(OC)cc2OC1", "ASSAY_READOUT": "GI50", "MEASURED_VALUE": "34 µM (inactive)"}
{"COMPOUND": "O=C(Cc1ccccc1)N/N=C/c1ccccc1O", "ASSAY_READOUT": "GI50", "MEASURED_VALUE": "3.98 µM (inactive)"}
{"COMPOUND": "O=C1CN2C(c3ccccc3)=NN(c3ccc([N+](=O)[O-])cc3)C2(c2ccccc2)c2cc(Cl)ccc2N1CC1CC1 (stereo not given)", "ASSAY_READOUT": "GI50", "MEASURED_VALUE": "> 100 µM (inactive)"}
{"COMPOUND": "CCOC(=S)SCC(=O)O", "ASSAY_READOUT": "GI50", "MEASURED_VALUE": "> 100 µM (inactive)"}
{"COMPOUND": "O=C1c2ccc3ccccc3c2CCC1N1CCCCC1 (stereo not given)", "ASSAY_READOUT": "GI50", "MEASURED_VALUE": "20.7 µM (inactive)"}
{"COMPOUND": "Brc1ccccc1-c1ncc(-c2ccccc2)o1", "ASSAY_READOUT": "GI50", "MEASURED_VALUE": "30.8 µM (inactive)"}
{"COMPOUND": "N#CC1=CNc2sccc2S1(=O)=O", "ASSAY_READOUT": "GI50", "MEASURED_VALUE": "> 100 µM (inactive)"}
